Biological target: hNav1.7 and the β1 subunit (Homo sapiens)
Construct: expressed in transfected cells
Test: Tritiated compound competitive binding to membranes from cells heterologously expressing hNav1.7 and the β1 subunit (LBA)
Conditions: competition with 100 pM [3H]compound, 18 h, room temperature; IC50 by 4 parameter logistic model
Quick reference: Nav1.7 (LBA) of the listed items.

[
  {
    "compound": "O=S(=O)(Nc1ncns1)c1ccc2c(c1)CC[C@@H]2N1CCCC[C@H]1c1ccccc1 (racemic)",
    "Nav1.7 (LBA)": "0.157 µM"
  },
  {
    "compound": "O=S(=O)(Nc1ncns1)c1cc(F)c(CN2CCCC[C@H]2c2cn[nH]c2)cc1F (single isomer, unassigned)",
    "Nav1.7 (LBA)": "2.24 µM"
  },
  {
    "compound": "O=S(=O)(Nc1ncns1)c1ccc2c(c1)CCC[C@@H]2N1CCCC[C@H]1c1ccccc1 (single isomer, unassigned) [Example 52]",
    "Nav1.7 (LBA)": "0.269 µM"
  },
  {
    "compound": "O=S(=O)(Nc1nccs1)c1ccc2c(c1)OCC[C@@H]2N1CCCC[C@H]1c1ccc(F)cc1 (single isomer, unassigned)",
    "Nav1.7 (LBA)": "0.022 µM"
  },
  {
    "compound": "O=S(=O)(Nc1ncns1)c1ccc2c(c1)CCC[C@H]2N1CCCC[C@@H]1c1ccccc1 (single isomer, unassigned)",
    "Nav1.7 (LBA)": "0.286 µM"
  },
  {
    "compound": "O=S(=O)(Nc1cscn1)c1cc2c(cc1F)[C@@H](N1CCCC[C@H]1c1ccccc1)CCO2 (single isomer, unassigned)",
    "Nav1.7 (LBA)": "0.091 µM"
  }
]

---

Target: hNav1.7 and the β1 subunit (Homo sapiens)
Construct: expressed in transfected cells
Assay: Tritiated compound competitive binding to membranes from cells heterologously expressing hNav1.7 and the β1 subunit (LBA)
Conditions: competition with 100 pM [3H]compound, 18 h, room temperature; IC50 by 4 parameter logistic model
Threshold 0.02 µM: Nav1.7 (LBA) strictly smaller gives Condition met, otherwise Condition not met.

[
  {
    "compound": "O=S(=O)(Nc1ncns1)c1ccc2c(c1)OCC[C@@H]2N1CCCC[C@H]1c1ccc(F)cc1 (single isomer, unassigned)",
    "category-label": "Condition met"
  },
  {
    "compound": "O=S(=O)(Nc1ncns1)c1ccc2c(c1)OCC[C@@H]2N1CCN(CC(F)(F)F)C[C@H]1c1ccccc1 (single isomer, unassigned)",
    "category-label": "Condition met"
  },
  {
    "compound": "O=S(=O)(Nc1ncns1)c1cc2c(cc1F)C(N1CCC(C(F)(F)F)CC1c1ccc(F)cc1)CCO2 (racemic)",
    "category-label": "Condition met"
  },
  {
    "compound": "O=S(=O)(Nc1ncns1)c1ccc2c(c1)OCC[C@H]2N1CC[C@@H](OC(F)(F)F)C[C@H]1c1ccc(F)cc1",
    "category-label": "Condition met"
  },
  {
    "compound": "O=S(=O)(Nc1ncns1)c1ccc2c(c1)CCC[C@@H]2N1CCCC[C@H]1c1ccccc1 (single isomer, unassigned) [Example 54]",
    "category-label": "Condition not met"
  },
  {
    "compound": "Cn1nccc1[C@@H]1CCCCN1Cc1cc(F)c(S(=O)(=O)Nc2ncns2)cc1F (single isomer, unassigned)",
    "category-label": "Condition not met"
  }
]

---

Quick reference: Nav1.7 (LBA) of the listed items.
Molecular target: hNav1.7 and the β1 subunit (Homo sapiens, UniProt Q15858)
Construct: expressed in transfected cells
Sequence (Q15858 whole entry): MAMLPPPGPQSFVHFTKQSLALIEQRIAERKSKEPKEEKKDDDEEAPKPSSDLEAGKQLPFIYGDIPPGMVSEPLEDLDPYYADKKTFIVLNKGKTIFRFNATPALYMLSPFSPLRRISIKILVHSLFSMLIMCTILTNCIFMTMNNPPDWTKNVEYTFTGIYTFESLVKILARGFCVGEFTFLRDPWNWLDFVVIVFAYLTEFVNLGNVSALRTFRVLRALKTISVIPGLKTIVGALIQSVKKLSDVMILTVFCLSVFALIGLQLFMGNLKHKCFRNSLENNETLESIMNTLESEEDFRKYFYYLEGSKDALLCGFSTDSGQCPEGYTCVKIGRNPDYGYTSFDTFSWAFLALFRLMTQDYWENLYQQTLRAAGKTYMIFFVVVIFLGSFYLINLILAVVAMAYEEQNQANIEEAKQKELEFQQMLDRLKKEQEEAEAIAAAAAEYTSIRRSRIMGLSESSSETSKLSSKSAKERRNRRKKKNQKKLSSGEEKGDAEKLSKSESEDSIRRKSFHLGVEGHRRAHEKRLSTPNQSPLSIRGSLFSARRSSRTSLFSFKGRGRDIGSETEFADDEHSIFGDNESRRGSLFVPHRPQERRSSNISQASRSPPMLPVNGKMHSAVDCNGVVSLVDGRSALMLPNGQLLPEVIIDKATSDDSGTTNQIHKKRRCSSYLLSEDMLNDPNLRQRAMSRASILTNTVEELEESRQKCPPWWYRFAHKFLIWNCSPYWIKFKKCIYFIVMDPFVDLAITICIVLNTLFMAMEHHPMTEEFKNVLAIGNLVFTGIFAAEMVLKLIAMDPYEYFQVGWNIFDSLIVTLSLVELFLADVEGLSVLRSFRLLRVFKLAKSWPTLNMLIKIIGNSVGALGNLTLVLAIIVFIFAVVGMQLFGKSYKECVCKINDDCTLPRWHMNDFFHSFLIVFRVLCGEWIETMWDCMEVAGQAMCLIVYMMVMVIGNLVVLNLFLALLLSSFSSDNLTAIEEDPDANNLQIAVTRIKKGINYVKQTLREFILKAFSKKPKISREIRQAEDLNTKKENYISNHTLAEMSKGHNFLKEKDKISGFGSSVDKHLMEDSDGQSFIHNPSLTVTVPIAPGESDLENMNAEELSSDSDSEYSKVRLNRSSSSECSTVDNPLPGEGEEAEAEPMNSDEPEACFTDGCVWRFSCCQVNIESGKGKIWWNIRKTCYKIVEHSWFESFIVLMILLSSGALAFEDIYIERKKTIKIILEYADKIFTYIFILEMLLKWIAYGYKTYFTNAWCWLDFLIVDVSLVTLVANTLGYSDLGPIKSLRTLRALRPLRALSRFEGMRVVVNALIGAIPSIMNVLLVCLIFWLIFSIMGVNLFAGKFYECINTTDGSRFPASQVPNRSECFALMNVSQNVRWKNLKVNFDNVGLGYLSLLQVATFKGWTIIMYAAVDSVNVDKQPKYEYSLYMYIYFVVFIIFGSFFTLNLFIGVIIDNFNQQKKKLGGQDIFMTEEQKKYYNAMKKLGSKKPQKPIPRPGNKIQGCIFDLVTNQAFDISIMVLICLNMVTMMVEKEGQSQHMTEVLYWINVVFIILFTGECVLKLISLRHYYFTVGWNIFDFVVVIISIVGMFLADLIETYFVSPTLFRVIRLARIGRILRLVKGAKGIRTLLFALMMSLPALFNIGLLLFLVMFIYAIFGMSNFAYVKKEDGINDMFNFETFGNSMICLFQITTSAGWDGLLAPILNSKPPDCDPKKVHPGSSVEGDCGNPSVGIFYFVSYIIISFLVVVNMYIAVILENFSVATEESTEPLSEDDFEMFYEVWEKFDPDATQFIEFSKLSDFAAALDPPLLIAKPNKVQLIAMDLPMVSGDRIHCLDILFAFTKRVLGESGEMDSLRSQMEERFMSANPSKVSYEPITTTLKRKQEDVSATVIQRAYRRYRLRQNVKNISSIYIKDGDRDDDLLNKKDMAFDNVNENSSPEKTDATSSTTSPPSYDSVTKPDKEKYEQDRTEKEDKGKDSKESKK
Sequence (Q07699 19-218 partner): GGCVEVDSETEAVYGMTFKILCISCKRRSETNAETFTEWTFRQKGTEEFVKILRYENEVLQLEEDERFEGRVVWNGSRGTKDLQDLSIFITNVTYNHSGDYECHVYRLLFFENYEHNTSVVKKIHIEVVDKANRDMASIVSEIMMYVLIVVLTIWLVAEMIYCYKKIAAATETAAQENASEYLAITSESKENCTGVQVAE
Assay: Tritiated compound competitive binding to membranes from cells heterologously expressing hNav1.7 and the β1 subunit (LBA)
Details: competition with 100 pM [3H]compound, 18 h, room temperature; IC50 by 4 parameter logistic model
Counter-ions that a name gives are not always drawn.
metric: Nav1.7 (LBA) (µM)

[
  {
    "molecule": "O=S(=O)(Nc1ncns1)c1cc(F)c(CN2CC[C@H](O)C[C@@H]2c2ccccc2)cc1F (single isomer, unassigned)",
    "recorded-number": 8.59
  },
  {
    "molecule": "O=S(=O)(Nc1ncns1)c1ccc2c(c1)OCC[C@@H]2N1CCC(C(F)(F)F)CC1",
    "recorded-number": 0.551
  },
  {
    "molecule": "O=S(=O)(Nc1ncns1)c1ccc2c(c1)CCC[C@@H]2N1CCCC[C@@H]1c1ccccc1 (single isomer, unassigned) [Example 51]",
    "recorded-number": 0.482
  },
  {
    "molecule": "O=S(=O)(Nc1ncns1)c1ccc2c(c1)OCC[C@H]2N1CC[C@@H](C(F)(F)F)C[C@H]1c1ccccn1",
    "recorded-number": 0.176
  },
  {
    "molecule": "O=S(=O)(Nc1ncns1)c1ccc2c(c1)OCC[C@@H]2N1CC[C@@](O)(C(F)(F)F)C[C@H]1c1ccc(F)cc1",
    "recorded-number": 0.000878
  },
  {
    "molecule": "O=S(=O)(Nc1ncns1)c1ccc2c(c1)CCC[C@H]2N1CCCC[C@H]1c1ccccc1 (single isomer, unassigned) [Example 53, trifluoroacetic acid salt]",
    "recorded-number": 0.271
  },
  {
    "molecule": "O=S(=O)(Nc1ncns1)c1ccc2c(c1)OCC[C@@H]2N1CCC[C@H]1c1ccccc1 (single isomer, unassigned)",
    "recorded-number": 0.274
  },
  {
    "molecule": "O=S(=O)(Nc1ncns1)c1ccc2c(c1)OCC[C@@H]2N1CCCC[C@H]1CCO (single isomer, unassigned)",
    "recorded-number": 3.51
  },
  {
    "molecule": "CS(=O)(=O)[C@@H]1CCN([C@@H]2CCOc3cc(S(=O)(=O)Nc4ncns4)ccc32)[C@H](c2ccc(F)cc2)C1",
    "recorded-number": 3
  },
  {
    "molecule": "O=S(=O)(Nc1ncns1)c1cc(F)c(CN2CCCC[C@H]2c2ccn[nH]2)cc1F (single isomer, unassigned)",
    "recorded-number": 0.118
  },
  {
    "molecule": "O=S(=O)(Nc1ncns1)c1ccc2c(c1)OCC[C@@H]2N1CCN(CCF)C[C@H]1c1ccc(F)cc1",
    "recorded-number": 0.125
  },
  {
    "molecule": "O=S(=O)(Nc1ncccn1)c1cc2c(cc1F)C(N1CCC(C(F)(F)F)CC1c1ccc(F)cc1)CCO2 (racemic)",
    "recorded-number": 0.00994
  },
  {
    "molecule": "O=S(=O)(Nc1ncns1)c1cc(F)c(CN2CCC3(CC3)C[C@@H]2c2ccccc2)cc1F (single isomer, unassigned)",
    "recorded-number": 1.57
  }
]

---

Target: hNav1.7 and the β1 subunit (Homo sapiens, UniProt Q15858)
Construct: expressed in transfected cells
Assay: Tritiated compound competitive binding to membranes from cells heterologously expressing hNav1.7 and the β1 subunit (LBA)
Conditions: competition with 100 pM [3H]compound, 18 h, room temperature; IC50 by 4 parameter logistic model
Output TRUE for Nav1.7 (LBA) not less than 0.07 µM; output FALSE otherwise.

[
  {
    "compound": "O=S(=O)(Nc1ncns1)c1cc(F)c(CN2CCC3(CC3)C[C@H]2c2ccccc2)cc1F [Example 110]",
    "category-label": "TRUE"
  },
  {
    "compound": "O=S(=O)(Nc1ncns1)c1ccc2c(c1)OCC[C@@H]2N1CC[C@@H](C(F)F)C[C@H]1c1ccc(F)cc1 [Example 186]",
    "category-label": "FALSE"
  },
  {
    "compound": "O=S(=O)(Nc1ncns1)c1ccc2c(c1)OCC[C@@H]2N1CC[C@@H](CF)C[C@H]1c1ccc(F)cc1 [Example 182]",
    "category-label": "FALSE"
  },
  {
    "compound": "O=S(=O)(Nc1ncns1)c1ccc2c(c1)OCC[C@@H]2N1CCc2ccccc2[C@H]1c1ccccc1 (single isomer, unassigned) [Example 80]",
    "category-label": "TRUE"
  },
  {
    "compound": "O=S(=O)(Nc1ncns1)c1ccc2c(c1)OCC[C@H]2N1CCC(F)(F)C[C@@H]1c1ccc(F)cc1 (single isomer, unassigned) [Example 132]",
    "category-label": "TRUE"
  },
  {
    "compound": "C[C@@H]1CCN(Cc2cc(F)c(S(=O)(=O)Nc3ncns3)cc2F)[C@H](c2ccccc2)C1 (single isomer, unassigned) [Example 6]",
    "category-label": "TRUE"
  }
]

---

Quick reference: Nav1.7 (LBA) of the listed items.
Molecular target: hNav1.7 and the β1 subunit (Homo sapiens, UniProt Q15858)
Construct: expressed in transfected cells
Assay: Tritiated compound competitive binding to membranes from cells heterologously expressing hNav1.7 and the β1 subunit (LBA)
Conditions: competition with 100 pM [3H]compound, 18 h, room temperature; IC50 by 4 parameter logistic model

[
  {
    "compound": "O=S(=O)(Nc1ncccn1)c1cc2c(cc1F)[C@@H](N1CCCC[C@H]1c1ccccc1)CCO2 (single isomer, unassigned)",
    "tested-target": "hNav1.7 and the β1 subunit (Homo sapiens, UniProt Q15858)",
    "readout-units": "µM",
    "Nav1.7 (LBA)": 0.423
  },
  {
    "compound": "CS(=O)(=O)[C@@H]1CCN([C@@H]2CCOc3cc(S(=O)(=O)Nc4nccs4)c(F)cc32)[C@H](c2ccc(F)cc2)C1",
    "tested-target": "hNav1.7 and the β1 subunit (Homo sapiens, UniProt Q15858)",
    "readout-units": "µM",
    "Nav1.7 (LBA)": 1.01
  },
  {
    "compound": "O=S(=O)(Nc1nccs1)c1ccc2c(c1)OCC[C@@H]2N1CCCC[C@@H]1c1ccc(F)cc1 (single isomer, unassigned)",
    "tested-target": "hNav1.7 and the β1 subunit (Homo sapiens, UniProt Q15858)",
    "readout-units": "µM",
    "Nav1.7 (LBA)": 0.0221
  },
  {
    "compound": "O=S(=O)(Nc1ncns1)c1cc(F)c(CN2CC[C@H](F)C[C@@H]2c2ccccc2)cc1F (single isomer, unassigned)",
    "tested-target": "hNav1.7 and the β1 subunit (Homo sapiens, UniProt Q15858)",
    "readout-units": "µM",
    "Nav1.7 (LBA)": 0.157
  }
]

FYI, the data here is from patent US10787446B2.
